This section presents compounds with their documented IC50 values.
System: Human immunodeficiency virus 2
Assay: Antiviral activity against HIV 2 subtype B clinical isolate expressing 14Y-61N-99L protease gene sequence from HIV2 infected patient plasma and PBMC obtained before compound treatment measured after 13 months
Format: functional, organism-based
Conditions: Human immunodeficiency virus 2, subtype B\r\n
Give a bare numeral; the unit nM is implied.

Below, 5 compounds whose answers are already recorded.
Tell me reported IC50 for Cc1c(O)cccc1C(=O)N[C@@H](CSc1ccccc1)[C@H](O)CN1C[C@H]2CCCC[C@H]2C[C@H]1C(=O)NC(C)(C)C , tested with Human immunodeficiency virus 2. 200

Requested read-out IC50, target or system Human immunodeficiency virus 2, entry CC(C)CN(C[C@@H](O)[C@H](Cc1ccccc1)NC(=O)O[C@H]1CO[C@H]2OCC[C@H]21)S(=O)(=O)c1ccc(N)cc1 2

Param readout= IC50; system= Human immunodeficiency virus 2; entry= CCC[C@@]1(CCc2ccccc2)CC(O)=C([C@H](CC)c2cccc(NS(=O)(=O)c3ccc(C(F)(F)F)cn3)c2)C(=O)O1 ; returns value. 400

Look up IC50 with Human immunodeficiency virus 2 for this compound: Cc1cccc(C)c1OCC(=O)N[C@@H](Cc1ccccc1)[C@@H](O)C[C@H](Cc1ccccc1)NC(=O)[C@H](C(C)C)N1CCCNC1=O 40

# value lookup — system Human immunodeficiency virus 2, readout IC50, item COC(=O)N[C@H](C(=O)N[C@@H](Cc1ccccc1)[C@@H](O)CN(Cc1ccc(-c2ccccn2)cc1)NC(=O)[C@@H](NC(=O)OC)C(C)(C)C)C(C)(C)C 60

Others:
Could you share what IC50 was measured for CC(C)(C)NC(=O)[C@@H]1C[C@@H]2CCCC[C@@H]2CN1C[C@@H](O)[C@H](Cc1ccccc1)NC(=O)[C@H](CC(N)=O)NC(=O)c1ccc2ccccc2n1 , tested on Human immunodeficiency virus 2? 14000

Query the reported IC50 for Human immunodeficiency virus 2; item: CC(C)(C)NC(=O)[C@@H]1CN(Cc2cccnc2)CCN1C[C@@H](O)C[C@@H](Cc1ccccc1)C(=O)N[C@H]1c2ccccc2C[C@H]1O 100

Short answer please: IC50, Human immunodeficiency virus 2, entry CC(C)CN(C[C@@H](O)[C@H](Cc1ccccc1)NC(=O)O[C@H]1CCOC1)S(=O)(=O)c1ccc(N)cc1 600
